System: uninfected cell cultures
assay.remarks: Cytotoxicity (CC50), MTS-based multicycle CPE reduction assay, Experimental Example 2
Type: cell-based
assay.context: Table 5, listed as Ex. 74
assay.metric: CC50

Inquiry: Given the compound CC(=O)Oc1cc(C)ccc1C1(OC(C)=O)C(=O)c2ccccc2C1=O [Example 74] , write its reported CC50.
Reply text: > 100 µM

====

Test system: Polio 3
assay.remarks: microbe, parasite or virus in culture
Assay type: cell-based, poliovirus 3
assay.context: Enterovirus C, BGM, read-out: Polio 3 EC50
assay.metric: EC50

{"compound": "CC(=O)Oc1cc(C(C)C)ccc1C1(OC(C)=O)C(=O)c2ccccc2C1=O [Example 19]", "EC50": "< 1000 nM"}

Proceed to the following item.
Inquiry: Given the compound CC(=O)Oc1cc(C(C)C)ccc1C1(OC(C)=O)C(=O)c2cccc(N)c2C1=O (centres unmarked) [Example 36] , write its reported EC50.
Reply text: < 10 nM

====

assay.remarks: in vitro
assay.context: human, Picorna-virus CC50
Label class 1 when CC50 < 10 µg/mL; otherwise class 0.

Example cases with answers are listed next.
{"compound": "CC(=O)Nc1cc(C)c(C)cc1C1(O)C(=O)c2ccccc2C1=O", "category": "class 1"}
{"compound": "CCC(=O)Nc1cc(C)c(C)cc1C1(O)C(=O)c2ccccc2C1=O", "category": "class 1"}
{"compound": "CCCCC(=O)NC1(c2ccc(C(C)C)cc2OC(=O)C(C)(C)C)C(=O)c2ccccc2C1=O", "category": "class 0"}
{"compound": "CCCCCCC(=O)NC1(c2ccc(C(C)C)cc2OC(=O)CCCCCC)C(=O)c2cccc(N)c2C1=O (centres unmarked)", "category": "class 0"}
{"compound": "CCCCCC(=O)NC1(c2ccc(C(C)C)cc2OC(=O)CCCCC)C(=O)c2ccccc2C1=O", "category": "class 0"}

Inquiry: Check if CC50 falls below 10 µg/mL for CCCC(=O)NC1(c2ccc(C(C)C)cc2OC(=O)CCC)C(=O)c2ccccc2C1=O .
Reply text: class 0

Inquiry: Check if CC50 falls below 10 µg/mL for CCCCC(=O)NC1(c2ccc(C(C)C)cc2OC(=O)CCCC)C(=O)c2cccc(N)c2C1=O (centres unmarked) .
Reply text: class 0

Inquiry: Check if CC50 falls below 10 µg/mL for COc1cc(NC(=O)C(C)C)c(C2(O)C(=O)c3cc(OC)c(OC)cc3C2=O)cc1OC .
Reply text: class 0

Inquiry: Check if CC50 falls below 10 µg/mL for CCC(=O)NC1(c2ccc(C(C)C)cc2OC(=O)CC)C(=O)c2cccc(N)c2C1=O (centres unmarked) .
Reply text: class 0

Inquiry: Check if CC50 falls below 10 µg/mL for CCc1ccc(C2(O)C(=O)c3ccccc3C2=O)c(NC(C)=O)c1 .
Reply text: class 1

Inquiry: Check if CC50 falls below 10 µg/mL for CCCC(=O)Nc1cc(C)c(C)cc1C1(O)C(=O)c2ccccc2C1=O .
Reply text: class 0

Inquiry: Check if CC50 falls below 10 µg/mL for CC(C)C(=O)Nc1cc(C(C)C)ccc1C1(O)C(=O)c2ccccc2C1=O .
Reply text: class 0

Inquiry: Check if CC50 falls below 10 µg/mL for CCOC(=O)N(C(C)=O)C1(c2ccc(C(C)C)cc2O)C(=O)c2ccccc2C1=O .
Reply text: class 0

====

assay.remarks: in vitro
assay.context: human, CC50
CC50 listing for selected molecules.
Dear colleague, please return just the value in mg/L, with no unit written.

{"molecule": "CC(=O)Oc1ccc(C(C)(C)C)cc1C1(OC(C)=O)C(=O)c2ccccc2C1=O [Example 14]", "assay.metric": "CC50", "units.symbol": "mg/L", "recorded.value": 8.26}

Inquiry: Given the molecule COc1cc(C(C)C)ccc1C1(N=[N+]=[N-])C(=O)c2ccccc2C1=O [Example 52] , write its reported CC50.
Reply text: 27.7

Inquiry: Given the molecule COc1cc(C(C)C)ccc1C1(N)C(=O)c2ccccc2C1=O [Example 53] , write its reported CC50.
Reply text: 10.2

Inquiry: Given the molecule COc1cc(C(C)C)ccc1C1(Br)C(=O)c2cccc(NC(C)=O)c2C1=O (stereo not shown) [Example 65] , write its reported CC50.
Reply text: 11.2

====

melting point listing for selected molecules.

Worked set:
{"molecule": "CC(=O)Oc1cc(C(C)C)ccc1C1(OC(C)=O)C(=O)c2cccc(N)c2C1=O (stereo not drawn)", "recorded.value": "148 to 151 °C"}
{"molecule": "COc1cc(C(C)C)ccc1C1(O)C(=O)c2ccc(N)c(NC(C)=O)c2C1=O (stereo not drawn)", "recorded.value": "124 to 131 °C"}
{"molecule": "CCc1ccc(OC(C)=O)c(C2(OC(C)=O)C(=O)c3ccccc3C2=O)c1", "recorded.value": "153 to 154 °C"}
{"molecule": "COc1ccc(OC(C)=O)c(C2(OC(C)=O)C(=O)c3ccccc3C2=O)c1", "recorded.value": "184 to 186 °C"}

Inquiry: Given the molecule CC(C)c1ccc(C2(OC(=O)c3ccccc3)C(=O)c3ccccc3C2=O)c(O)c1 , write its reported melting point.
Reply text: 117 to 119 °C

Inquiry: Given the molecule CC(C)c1ccc(C2(O)Cc3ccccc3C2=O)c(O)c1 (stereo not drawn) , write its reported melting point.
Reply text: 144 to 146 °C

Inquiry: Given the molecule CC(C)c1ccc(C2(NC(=O)c3ccccc3)C(=O)c3ccccc3C2=O)c(OC(=O)c2ccccc2)c1 , write its reported melting point.
Reply text: 138 to 140 °C

Inquiry: Given the molecule CC(=O)Oc1ccc(-c2ccccc2)cc1C1(OC(C)=O)C(=O)c2ccccc2C1=O , write its reported melting point.
Reply text: 196 to 198 °C

Inquiry: Given the molecule COc1cc(C(C)C)ccc1C1(NC(=O)c2ccccc2)C(=O)c2ccccc2C1=O , write its reported melting point.
Reply text: 106 to 108 °C

Inquiry: Given the molecule CCCC(=O)Oc1cc(C(C)C)ccc1C1(OC(=O)CCC)C(=O)c2ccccc2C1=O , write its reported melting point.
Reply text: 98 to 102 °C

Inquiry: Given the molecule COC(=O)NC1(c2ccc(C(C)C)cc2OC)C(=O)c2ccccc2C1=O , write its reported melting point.
Reply text: 153 to 155 °C

Inquiry: Given the molecule Cc1cc(C2(O)C(=O)c3ccccc3C2=O)cc(C)c1O , write its reported melting point.
Reply text: 210 to 213 °C

====

System: Rhino 70
assay.remarks: Multicycle CPE reduction assay
Type: cell-based, rhinovirus 70
assay.context: Enterovirus, HeLa, read-out: Rhino 70 EC50, 37° C. in HeLa cells
assay.metric: EC50 (nM)
Dear colleague, please return just the value in nM, with no unit written.

Inquiry: Given the molecule CC(=O)Oc1cc(C(C)C)ccc1C1(OC(C)=O)C(=O)c2ccccc2C1=O , write its reported EC50.
Reply text: 2000

====

Test system: Polio-virus 3
assay.remarks: microbe, parasite or virus in culture
Format: cell-based, Poliovirus 3
assay.context: Enterovirus C, HeLa37, 48 h, read-out: Polio-virus 3 EC50
assay.metric: EC50 (µg/mL)
Dear colleague, please return just the value in µg/mL, with no unit written.

Worked set:
{"molecule": "CCNC(=O)Oc1cc(C(C)C)ccc1C1(NC(C)=O)C(=O)c2cccc(N)c2C1=O (centres unmarked)", "assay.metric": "EC50", "recorded.value": 0.013}
{"molecule": "CCCCOC(=O)Oc1cc(C(C)C)ccc1C1(NC(C)=O)C(=O)c2cccc(N)c2C1=O (centres unmarked)", "assay.metric": "EC50", "recorded.value": 0.03}
{"molecule": "CCCCCC(=O)NC1(c2ccc(C(C)C)cc2OC(=O)CCCCC)C(=O)c2cccc(N)c2C1=O (centres unmarked)", "assay.metric": "EC50", "recorded.value": 0.015}
{"molecule": "CCCCC(=O)NC1(c2ccc(C(C)C)cc2OC(=O)CCCC)C(=O)c2cccc(N)c2C1=O (centres unmarked)", "assay.metric": "EC50", "recorded.value": 0.012}

Proceed to the following item.
Inquiry: Given the molecule CCCC(=O)NC1(c2ccc(C(C)C)cc2OC(=O)CCC)C(=O)c2cccc(N)c2C1=O (centres unmarked) , write its reported EC50.
Reply text: 0.015

====

assay.remarks: in vitro
assay.context: human, CC50
Label MET when CC50 < 20 µg/mL; otherwise NOT MET.

Example cases with answers are listed next.
{"compound": "CC(C)c1ccc(C2(O)C(=O)c3ccccc3C2=O)c(OC(=O)/C=C/c2ccccc2)c1", "category": "NOT MET"}
{"compound": "CC(C)c1ccc(C2(OC(=O)c3ccccc3)C(=O)c3ccccc3C2=O)c(O)c1", "category": "NOT MET"}
{"compound": "CCOC(=O)Cc1cc(OC)c(OC(C)=O)c(C2(OC(C)=O)C(=O)c3ccccc3C2=O)c1", "category": "NOT MET"}

Inquiry: Check if CC50 falls below 20 µg/mL for CSc1ccccc1C1(O)C(=O)c2ccccc2C1=O .
Reply text: NOT MET

Inquiry: Check if CC50 falls below 20 µg/mL for O=C1c2ccccc2C(=O)C1(O)c1ncc(Cl)cc1O .
Reply text: NOT MET

Inquiry: Check if CC50 falls below 20 µg/mL for COc1ccc(OC(C)=O)c(C2(OC(C)=O)C(=O)c3ccccc3C2=O)c1 .
Reply text: NOT MET

Inquiry: Check if CC50 falls below 20 µg/mL for COc1cc(C(C)C)ccc1C1(Cl)C(=O)c2cccc([N+](=O)[O-])c2C1=O (centres unmarked) .
Reply text: MET

Inquiry: Check if CC50 falls below 20 µg/mL for CCc1ccc(C2(OC(C)=O)C(=O)c3ccccc3C2=O)c(OC(C)=O)c1 .
Reply text: NOT MET

Inquiry: Check if CC50 falls below 20 µg/mL for COc1cc(C(C)C)ccc1C1(O)C(=O)c2c(N)ccc(NC(C)=O)c2C1=O (centres unmarked) .
Reply text: NOT MET
